The values you see were collected from PubChem BioAssay.

- Assay Comment: small-molecule binders of probe aNOTCH3, primary screen, biochemical, small-molecule microarray, 635/667 nm fluorescence (AID 1120);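 further: probe is a biotin-tagged antibody raised against NOTCH3 rather than NOTCH3 protein; score merges spot fluorescence near 667 nm with spot signal to noise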
- Study Conditions: higher = more signal
Measurement Label: composite z-score
Form: value (number only, do not type unit).

Use the examples below as a reference point.
INSERT INTO results (compound, measurement_label, result_number) VALUES
  ('C=CC[C@@H](OC(=O)Nc1ccc(OC)cc1)c1ccc(O)c2ccccc12', 'composite z-score', 0.278),
  ('CC(=CC1CCCCC1)[C@@H](NC(=O)c1ccc(C(F)(F)F)cc1)c1ccc(-c2ccccc2)cc1', 'composite z-score', -0.0311),
  ('CCOc1cc(C(O)C2C=CC3C(=O)N(c4ccccc4)C(=O)C3N2Nc2ccc([N+](=O)[O-])cc2)ccc1O (centres undefined)', 'composite z-score', 0.0488),
  ('CC(C)Cc1ccc(CN2CC[C@@H](NS(=O)(=O)c3ccccc3)C2)cc1', 'composite z-score', -0.187),
  ('CC(C)N1C(=O)C[C@@](C(=O)NCc2ccccc2)(c2ccc([N+](=O)[O-])cc2)[C@H]1c1ccc(CO)cc1', 'composite z-score', -0.186);

Quick check: composite z-score of CC(=O)NCCCC[C@@H]1NC(=O)[C@@H]2C[C@H](C(=O)NCCCCCCNC(=O)CS)[C@H](c3ccc(O)cc3)N2C1=O ?
-0.256

Follow-up item: O=C(O)[C@@]1(Cc2ccccc2)N=C(c2ccc(OCCCO)cc2)O[C@H]1c1ccccc1
-0.0932

Can you handle O=C(NCc1ccccc1)[C@]1(CCS(=O)(=O)c2ccccc2)N=C(c2ccc(OCCCO)cc2)O[C@@H]1c1ccccc1 next?
0.296

Try Cc1ccc(F)cc1S(=O)(=O)N[C@@H]1CCN(Cc2ccc(-c3ccccc3)cc2)C1 next.
-0.126

Similarly, COC(=O)[C@@]1(Cc2ccc(OC)cc2)[C@H]2c3cc(C(=O)N4CCCC4)n(Cc4ccccn4)c3C[C@H]2CN1C(=O)c1ccccc1 ?
0.277

Next up: O=C(CCN1CCOCC1)c1cccc(O)c1
0.324

Cool, now C=C[C@H](COC(C)=O)N(Cc1ccc(OC(C)=O)c(OC)c1)S(=O)(=O)c1ccc(Br)cc1
0.223

And O=C1O[C@H](c2ccccc2)[C@H](c2ccccc2)N2[C@H]1[C@@H](C(=O)N1CCN(c3ncccn3)CC1)[C@]1(C(=O)Nc3ccccc31)[C@H]2c1ccc(OCCO)cc1 ?
0.183

Next up: CCOC(=O)C1=CC[C@@H](c2ccccc2Cl)N(S(=O)(=O)c2ccc(C)cc2)C1
0.0738

How about CC(C)(C)N1CC=CC23O[C@@H]4C=CCOC(=O)[C@@H]4[C@H]2C(=O)N(CCCCCO)[C@@H]3C1=O (some centres undefined) ?
-0.406

Record: COc1ccc(C(=O)Nc2cccc(CN3C(=O)[C@]4(O[C@H](CC(=O)N5CCC[C@H]5CO)[C@@H]([Si](C)(C)c5ccc(OC)cc5)[C@@H]4C)c4ccccc43)c2)cc1
-0.0044
